- method notes: Toxicity in po dosed Wistar rat tail pressing-induced mechanical pain model
- Format: organism-based
- protocol conditions: in vivo
property: LD50

In: Supply reported LD50 belonging to this compound: `Cc1c(N(C)C)c(=O)n(-c2ccccc2)n1C`
Out: > 2560 mg/kg
